- System: Staphylococcus aureus
- test.name: Plasma shift, ratio of MIC for Staphylococcus aureus Smith in presence of mouse plasma to MIC for Staphylococcus aureus Smith in absence of mouse plasma
- Format: functional
Exercise: for every item that follows, state its recorded Ratio.
Reply with just the number.

Q: Looking for the measured Ratio of COc1cc(O)c2c(c1Br)C(=O)OCCCCC(=O)N[C@H](c1nc(C)no1)CSC2 , can you help?
Result: 4

Q: Looking for the measured Ratio of COc1cc(O)c2c(c1C)C(=O)OCCCCC(=O)N[C@H](c1nc(C)no1)CSC2 , can you help?
Result: 2

Q: Looking for the measured Ratio of COc1cc(O)c2c(c1Br)C(=O)OCC(=O)NCC(=O)N[C@H](c1nc(C)no1)CSC2 , can you help?
Result: 2

Q: Looking for the measured Ratio of COc1cc(O)c2c(c1C)C(=O)OCCCCC(=S)N[C@H](c1nc(CN)no1)CSC2.Cl , can you help?
Result: 4

Q: Looking for the measured Ratio of COc1cc(O)c2c(c1Br)C(=O)OCCCCC(=S)N[C@H](c1nc(C)no1)CSC2 , can you help?
Result: 8

Q: Looking for the measured Ratio of COc1cc(O)c2c(c1C)C(=O)OCCCCC(=S)N[C@H](c1nc(C)no1)CSC2 , can you help?
Result: 8

====

Exercise: for every item that follows, state its recorded MIC50.
- System: Enterococcus faecalis
- test.name: Antimicrobial activity against multidrug-resistant Enterococcus faecalis after 18 hrs by agar dilution method
- Type: functional
The reply should be a number in µg/mL, with the unit left off.

Q: Looking for the measured MIC50 of CC(=O)NC[C@H]1CN(c2ccc(N3CCOCC3)c(F)c2)C(=O)O1 , can you help?
Result: 2

Q: Looking for the measured MIC50 of COc1cc(O)c2c(c1Br)C(=O)OCC(=O)NCC(=O)N[C@H](c1nc(C)no1)CSC2 , can you help?
Result: 0.25

Q: Looking for the measured MIC50 of C[C@@H](O)[C@H]1C(=O)N2C(C(=O)O)=C(SCCNC=N)C[C@H]12 [IMIPENEM ANHYDROUS] , can you help?
Result: 2

Q: Looking for the measured MIC50 of CN[C@H](CC(C)C)C(=O)N[C@H]1C(=O)N[C@@H](CC(N)=O)C(=O)N[C@H]2C(=O)N[C@H]3C(=O)N[C@H](C(=O)N[C@H](C(=O)O)c4cc(O)cc(O)c4-c4cc3ccc4O)[C@H](O)c3ccc(c(Cl)c3)Oc3cc2cc(c3O[C@@H]2O[C@H](CO)[C@@H](O)[C@H](O)[C@H]2O[C@H]2C[C@](C)(N)[C@H](O)[C@H](C)O2)Oc2ccc(cc2Cl)[C@H]1O , can you help?
Result: 2

Q: Looking for the measured MIC50 of COc1cc(O)c2c(c1C)C(=O)OCCCCC(=S)N[C@H](c1nc(C)no1)CSC2 , can you help?
Result: 4

Q: Looking for the measured MIC50 of COc1cc(O)c2c(c1C)C(=O)O[C@H](CO)CCC/C(S)=N/[C@H](c1nc(C)no1)CSC2 , can you help?
Result: 1

====

Exercise: for every item that follows, state its recorded MIC.
- Test system: Staphylococcus aureus
- test.name: Antimicrobial activity against Staphylococcus aureus ATCC 25923 after 18 hrs by agar dilution method
- Format: functional
- particulars: ATCC 25923, 18 h
The reply should be a number in µg/mL, with the unit left off.

Q: Looking for the measured MIC of CO[C@@H]1[C@@H](OC(N)=O)[C@@H](O)[C@H](Oc2ccc3c(O)c(NC(=O)c4ccc(O)c(CC=C(C)C)c4)c(=O)oc3c2C)OC1(C)C , can you help?
Result: 0.25

Q: Looking for the measured MIC of COc1cc(O)c2c(c1Br)C(=O)OCC(=O)NCC(=S)N[C@H](c1nc(CNC(C)C)no1)CSC2.Cl , can you help?
Result: 1

Q: Looking for the measured MIC of COc1cc(O)c2c(c1C)C(=O)OCC(=O)NCC(=S)N[C@H](c1nc(C)no1)CSC2 , can you help?
Result: 1

Q: Looking for the measured MIC of COc1cc(O)c2c(c1Cl)C(=O)OCCCCC(=S)N[C@H](c1nc(CN)no1)CSC2.Cl , can you help?
Result: 0.5

Q: Looking for the measured MIC of COc1cc(O)c2c(c1C)C(=O)OCCCCC(=S)N[C@H](c1nc(C)no1)CSC2 , can you help?
Result: 0.12

Q: Looking for the measured MIC of COc1cc(O)c2c(c1C)C(=O)OCCCCC(=S)N[C@H](c1nc(CN)no1)CSC2.Cl , can you help?
Result: 0.5

====

Exercise: for every item that follows, state its recorded MIC.
- Test system: Staphylococcus aureus
- test.name: Antimicrobial activity against Staphylococcus aureus ATCC 25923 after 18 hrs by agar dilution method
- Type: functional
- particulars: ATCC 25923, 18 h
The reply should be a number in µg/mL, with the unit left off.

Q: # returns recorded MIC (system: Staphylococcus aureus) for COc1cc(O)c2c(c1C)C(=O)OCC(=O)NCC(=O)N[C@H](c1nc(C)no1)CSC2
Result: 32

Q: # returns recorded MIC (system: Staphylococcus aureus) for COc1cc(O)c2c(c1Br)C(=O)OCC(=O)NCC(=O)N[C@H](c1nc(C)no1)CSC2
Result: 4

Q: # returns recorded MIC (system: Staphylococcus aureus) for COc1cc(O)c2c(c1Br)C(=O)OCC(=O)NCC(=S)N[C@H](c1nc(C)no1)CSC2
Result: 0.25

Q: # returns recorded MIC (system: Staphylococcus aureus) for COc1cc(O)c2c(c1C)C(=O)OCCCCC(=O)N[C@H](c1nc(C)no1)CSC2
Result: 0.5

====

- System: Staphylococcus aureus
- test.name: Antimicrobial activity against Staphylococcus aureus Smith after 18 hrs by agar dilution method
- Assay type: functional
Exercise: for every item that follows, state its recorded log10 MIC.
Values below are the log10 of the recorded MIC, with µg/mL as the unit.

Q: Looking for the measured log10 MIC of COc1cc(O)c2c(c1Br)C(=O)OCC(=O)NCC(=S)N[C@H](c1nc(CNC(C)C)no1)CSC2.Cl , can you help?
Result: -0.30

Q: Looking for the measured log10 MIC of COc1cc(O)c2c(c1C)C(=O)OCC(=O)NCC(=O)N[C@H](c1nc(C)no1)CSC2 , can you help?
Result: 0.90

Q: Looking for the measured log10 MIC of CO[C@@H]1[C@@H](OC(N)=O)[C@@H](O)[C@H](Oc2ccc3c(O)c(NC(=O)c4ccc(O)c(CC=C(C)C)c4)c(=O)oc3c2C)OC1(C)C , can you help?
Result: -0.92

Q: Looking for the measured log10 MIC of COc1cc(O)c2c(c1Cl)C(=O)OCCCCC(=S)N[C@H](c1nc(CN)no1)CSC2.Cl , can you help?
Result: -0.92

Q: Looking for the measured log10 MIC of COc1cc(O)c2c(c1C)C(=O)OCC(=O)NCC(=S)N[C@H](c1nc(C)no1)CSC2 , can you help?
Result: -0.30

Q: Looking for the measured log10 MIC of COc1cc(O)c2c(c1C)C(=O)OCCCCC(=S)N[C@H](c1nc(CN)no1)CSC2.Cl , can you help?
Result: -0.60

Q: Looking for the measured log10 MIC of COc1cc(O)c2c(c1Br)C(=O)OCC(=O)NCC(=O)N[C@H](c1nc(C)no1)CSC2 , can you help?
Result: 0.00

Q: Looking for the measured log10 MIC of COc1cc(O)c2c(c1C)C(=O)OCCCCC(=S)N[C@H](c1nc(C)no1)CSC2 , can you help?
Result: -1.22

Q: Looking for the measured log10 MIC of COc1cc(O)c2c(c1C)C(=O)OCCCCC(=O)N[C@H](c1nc(C)no1)CSC2 , can you help?
Result: -0.60

====

- System: Escherichia coli
- test.name: Inhibition of Escherichia coli DNA gyrase A2B2 complex after 30 mins by supercoiling assay
measurement.name: MNEC (µg/mL)
The reply should be a number in µg/mL, with the unit left off.

Q: Looking for the measured MNEC of COc1cc(O)c2c(c1C)C(=O)OC[C@@H](CO)CCC(=O)N[C@H](c1nc(C)no1)CSC2 , can you help?
Result: 0.1

Q: Looking for the measured MNEC of COc1cc(O)c2c(c1Br)C(=O)OCC(=O)NCC(=O)N[C@H](c1nc(CNC(C)C)no1)CSC2.Cl , can you help?
Result: 0.02

Q: Looking for the measured MNEC of COc1cc(O)c2c(c1Br)C(=O)OCC(=O)NCC(=S)N[C@H](c1nc(C)no1)CSC2 , can you help?
Result: 0.05

Q: Looking for the measured MNEC of COc1cc(O)c2c(c1Br)C(=O)OCCCCC(=O)N[C@H](c1nc(C)no1)CSC2 , can you help?
Result: 0.005

Q: Looking for the measured MNEC of COc1cc(O)c2c(c1Cl)C(=O)OCC(=O)NCC(=O)N[C@H](c1nc(C)no1)CSC2 , can you help?
Result: 0.02

Q: Looking for the measured MNEC of COc1cc(O)c2c(c1Br)C(=O)OCCCCC(=S)N[C@H](c1nc(C)no1)CSC2 , can you help?
Result: 0.005

Q: Looking for the measured MNEC of COc1cc(O)c2c(c1Br)C(=O)OCCNCC(=O)N[C@H](c1nc(C)no1)CSC2.Cl , can you help?
Result: 0.01

Q: Looking for the measured MNEC of COc1cc(O)c2c(c1C)C(=O)O[C@H](CO)CCCC(=S)N[C@H](c1nc(CN)no1)CSC2 , can you help?
Result: 0.005

Q: Looking for the measured MNEC of COc1cc(O)c2c(c1Br)C(=O)O[C@H](c1ccccc1)C(=O)NCC(=O)N[C@H](c1nc(C)no1)CSC2 , can you help?
Result: 0.2

Q: Looking for the measured MNEC of COc1cc(O)c2c(c1Cl)C(=O)OCCCCC(=S)N[C@H](c1nc(C)no1)CSC2 , can you help?
Result: 0.002

Q: Looking for the measured MNEC of COc1cc(O)c2c(c1C)C(=O)OC[C@H](CO)CCC(=O)N[C@H](c1nc(C)no1)CSC2 , can you help?
Result: 0.005

Q: Looking for the measured MNEC of COc1cc(O)c2c(c1C)C(=O)O[C@H](CO)CCCC(=S)N[C@H](c1nc(CO)no1)CSC2 , can you help?
Result: 0.01

Q: Looking for the measured MNEC of COc1cc(O)c2c(c1Br)C(=O)OCCN(C(=O)[C@@H](N)CC(C)C)CC(=O)N[C@H](c1nc(C)no1)CSC2.Cl , can you help?
Result: 0.1

Q: Looking for the measured MNEC of COc1cc(O)c2c(c1Br)C(=O)OCC(=O)NCC(=O)N[C@H](c1nc(C)no1)CSC2 , can you help?
Result: 0.02

Q: Looking for the measured MNEC of COC(=O)[C@@H]1CSCc2c(O)cc(OC)c(C)c2C(=O)OCCCC/C(S)=N/1 , can you help?
Result: 0.01

Q: Looking for the measured MNEC of COC(=O)[C@@H]1CSCc2c(O)cc(OC)c(C)c2C(=O)OCCOCC(=S)N1 , can you help?
Result: 0.1

Q: Looking for the measured MNEC of COc1cc(O)c2c(c1Br)C(=O)OCC(=O)NCC(=O)N[C@H](c1nc(C3CC3)no1)CSC2 , can you help?
Result: 0.02

Q: Looking for the measured MNEC of COc1cc(O)c2c(c1C)C(=O)OC[C@@H](CO)CCC(=S)N[C@H](c1nc(C)no1)CSC2 , can you help?
Result: 0.05
